- TARGET OR TEST SYSTEM: human TLR7 (Homo sapiens (Human), UniProt Q9NYK1)
- Sequence (Q9NYK1 27-1049): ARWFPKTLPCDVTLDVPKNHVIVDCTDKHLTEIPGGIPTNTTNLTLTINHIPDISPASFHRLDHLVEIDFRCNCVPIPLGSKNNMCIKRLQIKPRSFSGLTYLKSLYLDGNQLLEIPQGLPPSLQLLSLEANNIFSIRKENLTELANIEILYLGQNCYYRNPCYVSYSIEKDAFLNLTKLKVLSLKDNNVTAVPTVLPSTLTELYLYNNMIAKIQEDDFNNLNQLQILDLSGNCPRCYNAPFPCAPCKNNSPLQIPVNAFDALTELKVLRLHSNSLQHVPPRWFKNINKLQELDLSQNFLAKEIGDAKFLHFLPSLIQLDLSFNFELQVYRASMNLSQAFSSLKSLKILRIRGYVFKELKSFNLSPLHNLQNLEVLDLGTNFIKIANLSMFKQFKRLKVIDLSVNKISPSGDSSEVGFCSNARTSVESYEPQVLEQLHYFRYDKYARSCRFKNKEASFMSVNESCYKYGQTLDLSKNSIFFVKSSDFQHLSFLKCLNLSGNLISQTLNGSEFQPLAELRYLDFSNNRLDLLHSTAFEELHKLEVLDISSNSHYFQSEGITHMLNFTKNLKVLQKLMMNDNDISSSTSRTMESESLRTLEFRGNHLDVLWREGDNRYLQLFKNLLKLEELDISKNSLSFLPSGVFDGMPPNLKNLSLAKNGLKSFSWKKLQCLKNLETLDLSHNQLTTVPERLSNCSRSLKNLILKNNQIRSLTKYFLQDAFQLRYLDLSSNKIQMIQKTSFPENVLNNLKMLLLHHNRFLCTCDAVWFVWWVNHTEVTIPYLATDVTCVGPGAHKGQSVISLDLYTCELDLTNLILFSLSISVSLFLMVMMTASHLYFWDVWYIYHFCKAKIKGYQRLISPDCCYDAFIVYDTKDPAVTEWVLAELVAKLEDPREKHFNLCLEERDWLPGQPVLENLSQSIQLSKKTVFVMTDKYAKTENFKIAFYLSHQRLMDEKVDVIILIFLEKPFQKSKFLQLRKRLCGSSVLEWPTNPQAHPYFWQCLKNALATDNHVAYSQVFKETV
- ASSAY INFO: Test for evaluating the inhibition of the activation of human TLR7 (SEAP reporter, TLR7/NF-κB/SEAPorter HEK293 cell)
- STUDY CONDITIONS: R-848 200 nmol/L, SEAP reporter
pIC50: −log10 of the molar value.
# key: entry, value: pIC50

SMILES ENTRY	pIC50
CCCOc1nc(C)c2nc(-c3cncc(C)c3)n(Cc3ccc(O[C@@H]4CN5CCC4CC5)nc3)c2n1	6.40
COc1nc(C)c2nc(-c3cncc(F)c3)n(Cc3ccc(O[C@@H]4CCN(C)C4)cc3F)c2n1	7.80
CCCCCc1nc(N)c2nc(-c3cncc(OC)c3)n(Cc3ccccc3)c2n1	5.85
